# Test system: Human lymphoma SCC-3 cells
# EXPERIMENTAL_PROTOCOL: SCC-3 cell growth inhibition test (MTT method)
# Type: cell-based
# RUN_PARAMETERS: Homo sapiens, 72-hour culture, read-out: Cell growth inhibitory activity (IC50: μM)
OBSERVED_PROPERTY: IC50 (µM)

Observe how each entry below is paired with its result.
> print(dat)
                         chemical.structure       target.or.test.system  observed.property  endpoint.unit  meas.value
1  O=C(Nc1nnc(-c2ccco2)o1)c1cc(-c2ccc(Cl)s2)nc2ccccc12  Human lymphoma SCC-3 cells               IC50             µM         2.1
2  Cc1cccc2c(C(=O)Nc3nnc(-c4ccco4)o3)cc(-c3ccccc3)nc12  Human lymphoma SCC-3 cells               IC50             µM           6
3  CC(C)(C)OC(=O)c1ccc(-c2cc(C(=O)Nc3nnc(-c4ccco4)o3)c3ccccc3n2)cc1  Human lymphoma SCC-3 cells               IC50             µM         0.7

P: CCCCOc1cc(C(=O)Nc2nnc(-c3ccco3)o2)c2ccccc2n1
Q: CC(C)(C)OC(=O)c1cccc(-c2cc(C(=O)Nc3nnc(-c4ccco4)o3)c3ccccc3n2)c1
Problem: // which entry has the larger IC50 value, P or Q ? Reply with the label of the item you choose.
Solution: P

====

# System: Human lymphoma SCC-3 cells
# EXPERIMENTAL_PROTOCOL: SCC-3 cell growth inhibition test (MTT method)
# Assay type: cell-based
# RUN_PARAMETERS: Homo sapiens, 72-hour culture, read-out: Cell growth inhibitory activity (IC50: μM)
OBSERVED_PROPERTY: IC50 (µM)

> print(dat)
                                   compound  observed.property  meas.value
1  O=C(Nc1nnc(-c2ccco2)o1)c1cc(-c2ccccc2)nc2cc(Br)ccc12 [Ia-24]               IC50         1.9
2  O=C(Nc1nnc(-c2ccco2)o1)c1cc(-c2ccccc2)nc2ccc(OC(F)(F)F)cc12 [Ia-71]               IC50         0.3
3  O=C(Nc1nnc(-c2ccco2)o1)c1cc(-c2ccccc2)nc2cc(Cl)ccc12 [Ia-72]               IC50         2.2

I: N#Cc1ccc(-c2cc(C(=O)Nc3nnc(-c4ccco4)o3)c3ccccc3n2)cc1 [Ia-17]
II: O=C(Nc1nnc(-c2ccco2)o1)c1cc(-c2ccc(Cl)cc2)nc2ccccc12 [Ia-47]
Problem: Response body: label of entry with the larger IC50; valid values I , II . Lab log: write the label of the selected item as the result.
Solution: I

====

Parameter inhibition at 100 µM: see the listing below.
# Tested on: STAT3
# EXPERIMENTAL_PROTOCOL: STAT3 transcription inhibition test (reporter gene method, oncostatin M stimulation)
# Type: cell-based
# RUN_PARAMETERS: Homo sapiens; compound at 100 μM; STAT3 reporter HeLa stable cell line; oncostatin M 10 ng/mL, 4 hours; read-out: STAT3 transcription inhibitory activity (%)
Give just the numeric value; % need not be written.

Use the examples below as a reference point.
> print(dat)
                         chemical.structure  target.or.test.system     observed.property  meas.value
1  COc1ccccc1-c1nnc(NC(=O)c2cc(-c3ccccc3)nc3ccccc23)o1                  STAT3  inhibition at 100 µM          67
2  O=C(Nc1nnc(-c2ccco2)o1)c1cc(-c2ccccc2)nc2ccc(Cl)cc12                  STAT3  inhibition at 100 µM          76
3  O=C(Nc1nnc(-c2ccco2)o1)c1cc(-c2ccccc2)nc2cc(Br)ccc12                  STAT3  inhibition at 100 µM          72

Problem: Sample O=C(Nc1nnc(-c2ccc([N+](=O)[O-])cc2)o1)c1cc(-c2ccccc2)nc2ccccc12 — what was its inhibition at 100 µM?
Solution: 65

Problem: Entry under review: O=C(Nc1nnc(-c2ccc([N+](=O)[O-])o2)o1)c1cc(-c2ccccc2)nc2ccccc12 . Reported inhibition at 100 µM?
Solution: 56

Problem: Could you tell me which inhibition at 100 µM is on file for O=C(Nc1nnc(-c2cccnc2)o1)c1cc(-c2ccccc2)nc2ccccc12 ?
Solution: 65

Problem: Please give the measured inhibition at 100 µM for this compound: N#Cc1ccc(-c2cc(C(=O)Nc3nnc(-c4ccco4)o3)c3ccccc3n2)cc1
Solution: 80

Problem: Returns the measured inhibition at 100 µM for the input compound. Input: Cc1ccc(-c2cc(C(=O)Nc3nnc(-c4ccco4)o3)c3ccccc3n2)cc1
Solution: 92

Problem: Return reported inhibition at 100 µM; argument: Cc1ccc(-c2cc(C(=O)Nc3nnc(-c4ccco4)o3)c3cccc(C)c3n2)cc1
Solution: 71

Problem: Data request, read-out inhibition at 100 µM, for O=C(Nc1nnc(-c2ccccc2)o1)c1cc(-c2ccccc2)nc2ccc(Cl)cc12
Solution: 89

Problem: Data request, read-out inhibition at 100 µM, for O=C(Nc1nnc(-c2ccco2)o1)c1cc(-c2ccc(Cl)s2)nc2ccccc12
Solution: 77
